target: Peregrin (Homo sapiens); test: Binding affinity to BRPF1 (unknown origin) by Isothermal titration calorimetry; details: read-out: Kd
Sequence (P55201 whole entry): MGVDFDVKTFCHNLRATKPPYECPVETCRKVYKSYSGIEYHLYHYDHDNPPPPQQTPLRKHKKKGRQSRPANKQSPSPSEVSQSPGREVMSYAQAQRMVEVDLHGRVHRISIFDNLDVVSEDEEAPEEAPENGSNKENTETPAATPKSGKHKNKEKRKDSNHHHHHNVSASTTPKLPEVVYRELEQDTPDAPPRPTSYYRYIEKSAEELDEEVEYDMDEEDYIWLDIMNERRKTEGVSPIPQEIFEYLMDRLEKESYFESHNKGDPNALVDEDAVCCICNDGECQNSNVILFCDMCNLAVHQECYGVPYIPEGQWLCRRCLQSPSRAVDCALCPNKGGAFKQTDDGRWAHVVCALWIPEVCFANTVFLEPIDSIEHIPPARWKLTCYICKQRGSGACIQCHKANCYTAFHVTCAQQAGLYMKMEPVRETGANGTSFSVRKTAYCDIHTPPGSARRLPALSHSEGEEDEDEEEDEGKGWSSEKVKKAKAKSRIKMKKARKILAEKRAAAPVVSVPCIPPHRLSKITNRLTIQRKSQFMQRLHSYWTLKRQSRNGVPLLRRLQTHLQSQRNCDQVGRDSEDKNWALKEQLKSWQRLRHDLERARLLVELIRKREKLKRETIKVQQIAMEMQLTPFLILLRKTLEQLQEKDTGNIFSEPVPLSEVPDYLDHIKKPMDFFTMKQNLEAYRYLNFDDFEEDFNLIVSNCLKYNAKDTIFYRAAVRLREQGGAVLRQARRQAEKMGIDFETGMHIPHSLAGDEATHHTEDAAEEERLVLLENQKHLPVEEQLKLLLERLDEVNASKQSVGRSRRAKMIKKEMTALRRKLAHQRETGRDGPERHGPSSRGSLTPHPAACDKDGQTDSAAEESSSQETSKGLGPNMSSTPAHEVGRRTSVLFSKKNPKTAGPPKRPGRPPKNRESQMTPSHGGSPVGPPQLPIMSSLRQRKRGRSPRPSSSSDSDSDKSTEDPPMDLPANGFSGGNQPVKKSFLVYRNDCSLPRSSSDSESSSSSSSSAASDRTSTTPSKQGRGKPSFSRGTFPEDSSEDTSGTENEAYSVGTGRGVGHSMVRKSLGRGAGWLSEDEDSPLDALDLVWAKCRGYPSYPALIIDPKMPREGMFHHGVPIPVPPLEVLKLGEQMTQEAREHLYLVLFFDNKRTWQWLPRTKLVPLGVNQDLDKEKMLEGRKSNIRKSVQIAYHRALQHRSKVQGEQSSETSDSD
quantity measured: Kd (nM)

Below, each entry is followed by its recorded Kd result.
| item smiles | measured on | unit symbol | Kd |
| --- | --- | --- | --- |
| Cc1cc2cc(NS(=O)(=O)Cc3ccc(C(=O)NO)cc3)ccc2n(C)c1=O | Peregrin (Homo sapiens) | nM | 1500 |
| Cc1cc2cc(NS(=O)(=O)c3ccc(C(=O)NO)cc3)ccc2n(C)c1=O | Peregrin (Homo sapiens) | nM | 175 |

a = COc1ccc(C(=O)NO)cc1NCc1ccc(OCCCCC(=O)Nc2ccc3c(c2)cc(C)c(=O)n3C)cc1
b = Cc1cc2cc(NS(=O)(=O)c3cc(C(=O)NO)ccc3Cl)ccc2n(C)c1=O
c = COc1ccc(C(=O)NO)cc1S(=O)(=O)Nc1ccc2c(c1)cc(C)c(=O)n2C
d = COc1ccc(C(=O)NO)cc1C(=O)Nc1ccc2c(c1)cc(C)c(=O)n2C
e = COc1cc(C(=O)NO)ccc1CS(=O)(=O)Nc1ccc2c(c1)cc(C)c(=O)n2C
IN: Write the entries in order, lowest recorded Kd first. Please list the labels according to the requested order.
OUT: c, b, d, e, a

Values compiled from ChEMBL document CHEMBL4765345.
